Assay Target: T1, 4H883-bN
T1 chain: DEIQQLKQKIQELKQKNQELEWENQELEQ
Assay Explanation: two-hybrid library CCNG1;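 further: natural log of median RNA to DNA barcode read ratio; higher means stronger binding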
So I've got a bunch of binders here, and I need their interaction score values.

Reported interaction score for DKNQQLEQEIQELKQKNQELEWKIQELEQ [4H3189-bN] : what is it?
-1.35

Reported interaction score for DEIQQLKQENQELKQKNQELEWEIQELKQ [4H754-bN] : what is it?
-1.38

Reported interaction score for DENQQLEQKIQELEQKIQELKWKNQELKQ [4H1328-bN] : what is it?
0.625

Reported interaction score for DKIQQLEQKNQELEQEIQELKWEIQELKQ [4H2442-bN] : what is it?
-0.738

Reported interaction score for DEIQELKKENEELKREIWELKKKIQELER [4H717-bH] : what is it?
-0.103

Reported interaction score for DEIQQLEQKIQELKQENQELEWEIQELKQ [4H338-bN] : what is it?
-1.26

Reported interaction score for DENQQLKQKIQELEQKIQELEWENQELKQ [4H1828-bN] : what is it?
-0.284
